Biological target: MRGPRX4 (Homo sapiens, UniProt Q96LA9)
Sequence (Q96LA9 whole entry): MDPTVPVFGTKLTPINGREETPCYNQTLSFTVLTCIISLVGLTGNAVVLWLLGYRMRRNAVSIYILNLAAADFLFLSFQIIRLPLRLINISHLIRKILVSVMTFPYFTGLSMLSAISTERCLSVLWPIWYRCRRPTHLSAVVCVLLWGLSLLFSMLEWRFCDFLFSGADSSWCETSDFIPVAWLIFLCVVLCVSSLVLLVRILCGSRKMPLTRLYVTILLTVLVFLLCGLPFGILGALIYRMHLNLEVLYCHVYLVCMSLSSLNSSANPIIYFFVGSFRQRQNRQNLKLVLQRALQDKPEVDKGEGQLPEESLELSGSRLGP
Test: MRGPRX4 activation, Fluo-8 Ca2+ FLIPR assay in HEK293T cells stably expressing MRGPRX4
Format: cell-based
Details: E3-9, Conc. (Log[M]) −7.8
Recorded endpoint: MRGPRX4 activation, Average

# Smi, Recorded endpoint, Measured result
measured = [
    ("CC[C@H]1[C@@H](O)[C@@H]2[C@H](CC[C@]3(C)[C@@H]([C@H](C)CCNC(=S)NS(=O)(=O)c4ccc(C(C)(C)CF)cc4)CC[C@@H]23)[C@@]2(C)CCC(F)(F)C[C@@H]12", "MRGPRX4 activation, Average", 0.015),
    ("CC[C@H]1[C@@H](O)[C@@H]2[C@H](CC[C@]3(C)[C@@H]([C@H](C)CCNC(=O)NS(=O)(=O)c4cccs4)CC[C@@H]23)[C@@]2(C)CCCC[C@@H]12", "MRGPRX4 activation, Average", 0.013),
    ("[2H]C1([2H])CC[C@@]2(C)[C@@H](C1)[C@@H](CC)[C@@H](O)[C@@H]1[C@@H]2CC[C@]2(C)[C@@H]([C@H](C)CCN=C=S)CC[C@@H]12", "MRGPRX4 activation, Average", 0.010),
]

====

Form field: MRGPRX4 activation, Ave. (one value per entry).
Target: MRGPRX4 (Homo sapiens)
Test: MRGPRX4 activation, Fluo-8 Ca2+ FLIPR assay in HEK293T cells stably expressing MRGPRX4
Assay type: cell-based
Set-up: key: fluorescence change dF/F0
Details: E3-7, Conc. (Log[M]) −5.5
Recorded endpoint: MRGPRX4 activation, Ave.

# Compound, Measured result
measured = [
    ("CC[C@H]1[C@@H](O)[C@@H]2[C@H](CC[C@]3(C)[C@@H]([C@H](C)CCNC(=O)C(=O)NS(=O)(=O)c4cc(F)cc(F)c4)CC[C@@H]23)[C@@]2(C)CCCC[C@@H]12", "−0.014"),
    ("[2H]C1([2H])CC[C@@]2(C)[C@@H](C1)[C@@H](CC)[C@@H](O)[C@@H]1[C@@H]2CC[C@]2(C)[C@@H]([C@H](C)CCNC(=O)NS(=O)(=O)c3ccc(C(C)(C)CF)cc3)CC[C@@H]12", "−0.054"),
    ("[2H]C1CC[C@@]2(C)[C@@H](C1)[C@@H](CC)[C@@H](O)[C@@H]1[C@@H]2CC[C@]2(C)[C@@H]([C@H](C)CCNC(=O)NS(=O)(=O)c3ccc(C(C)(C)CF)cc3)CC[C@@H]12 (stereo partly shown)", "−0.027"),
    ("CC[C@H]1[C@@H](O)[C@@H]2[C@H](CC[C@]3(C)[C@@H]([C@H](C)CCNC(=O)NS(=O)(=O)c4cc(F)ccc4F)CC[C@@H]23)[C@@]2(C)CCCC[C@@H]12", "−0.054"),
]

====

The compounds listed here are annotated with their MRGPRX4 activation, Average.
Target: MRGPRX4 (Homo sapiens)
Test: MRGPRX4 activation, Fluo-8 Ca2+ FLIPR assay in HEK293T cells stably expressing MRGPRX4
Format: cell-based
Design: key: fluorescence change dF/F0
Conditions: E3-9, Conc. (Log[M]) −8.3

# Compound, MRGPRX4 activation, Average
measured = [
    ("[2H]C1CC[C@@]2(C)[C@@H](C1)[C@@H](CC)[C@@H](O)[C@@H]1[C@@H]2CC[C@]2(C)[C@@H]([C@H](C)CCC(=O)O)CC[C@@H]12 (stereo partly shown)", 0.013),
    ("[2H]C1([2H])CC[C@@]2(C)[C@@H](C1)[C@@H](CC)[C@@H](O)[C@@H]1[C@@H]2CC[C@]2(C)[C@@H]([C@H](C)CCN=C=S)CC[C@@H]12", 0.010),
    ("CC[C@H]1[C@@H](O)[C@@H]2[C@H](CC[C@]3(C)[C@@H]([C@H](C)CCNC(=O)C(=O)NS(=O)(=O)c4cc(F)ccc4F)CC[C@@H]23)[C@@]2(C)CCCC[C@@H]12", 0.011),
    ("CC[C@H]1[C@@H](O)[C@@H]2[C@H](CC[C@]3(C)[C@@H]([C@H](C)CCNS(=O)(=O)c4cc(F)ccc4F)CC[C@@H]23)[C@@]2(C)CCCC[C@@H]12", 0.018),
    ("CC[C@H]1[C@@H](O)[C@@H]2[C@H](CC[C@]3(C)[C@@H]([C@H](C)CCC(=O)O)CC[C@@H]23)[C@@]2(C)CCC(F)(F)C[C@@H]12", 0.018),
    ("CC[C@H]1[C@@H](O)[C@@H]2[C@H](CC[C@]3(C)[C@@H]([C@H](C)CCNC(=O)NS(=O)(=O)c4ccc(C(C)(C)CF)cc4)CC[C@@H]23)[C@@]2(C)CC[C@H](F)C[C@@H]12", 0.018),
    ("CC[C@H]1[C@@H](O)[C@@H]2[C@H](CC[C@]3(C)[C@@H]([C@H](C)CCNC(=O)C(=O)NS(=O)(=O)c4ccc(C(C)(C)CF)cc4)CC[C@@H]23)[C@@]2(C)CCCC[C@@H]12", 0.018),
    ("CC[C@H]1[C@@H](O)[C@@H]2[C@H](CC[C@]3(C)[C@@H]([C@H](C)CCNC(=O)NS(=O)(=O)c4cccs4)CC[C@@H]23)[C@@]2(C)CCC(F)(F)C[C@@H]12", 0.020),
    ("CC[C@H]1[C@@H](O)[C@@H]2[C@H](CC[C@]3(C)[C@@H]([C@H](C)CCNC(=O)NS(=O)(=O)c4ccc5c(c4)CCC(C)(C)O5)CC[C@@H]23)[C@@]2(C)CCCC[C@@H]12", 0.018),
    ("CC[C@H]1[C@@H](O)[C@@H]2[C@H](CC[C@]3(C)[C@@H]([C@H](C)CCNC(=O)NS(=O)(=O)c4cccs4)CC[C@@H]23)[C@@]2(C)CC[C@H](F)C[C@@H]12", 0.019),
]

====

Target: MRGPRX4 (Homo sapiens, UniProt Q96LA9)
Assay: MRGPRX4 activation, Fluo-8 Ca2+ FLIPR assay in HEK293T cells stably expressing MRGPRX4
Assay type: cell-based
Conditions: Conc. (Log[M]) −4
Recorded endpoint: MRGPRX4 activation, fluorescence change (dF/F0), Average

# Molecule, Measurement target, Measured result
rows = [
    ("CC(C[C@@H](C)[C@H]1CC[C@H]2[C@@H]3CC[C@@H]4CCCC[C@]4(C)[C@H]3CC[C@]12C)C(=O)O (stereo partly drawn)", "MRGPRX4 (Homo sapiens, UniProt Q96LA9)", 0.071),
    ("CC[C@H]1[C@@H](O)[C@@H]2[C@H](CC[C@]3(C)[C@@H]([C@H](C)CCNC(=O)NS(=O)(=O)c4ccc5c(c4)CCN5C(C)=O)CC[C@@H]23)[C@@]2(C)CCCC[C@@H]12", "MRGPRX4 (Homo sapiens, UniProt Q96LA9)", 0.097),
    ("CC[C@H]1[C@@H](O)[C@@H]2[C@H](CC[C@]3(C)[C@@H]([C@H](C)CCNC(=O)NS(=O)(=O)C4CCCCC4)CC[C@@H]23)[C@@]2(C)CCCC[C@@H]12", "MRGPRX4 (Homo sapiens, UniProt Q96LA9)", 0.297),
]

====

Listing: MRGPRX4 activation, Average of selected molecules
Molecular target: MRGPRX4 (Homo sapiens)
Experiment: MRGPRX4 activation, Fluo-8 Ca2+ FLIPR assay in HEK293T cells stably expressing MRGPRX4
Type: cell-based
Set-up: key: fluorescence change dF/F0
Details: E3-9, Conc. (Log[M]) −5.0

# Molecule, Measurement target, MRGPRX4 activation, Average
records = [
    ("CC[C@H]1[C@@H](O)[C@@H]2[C@H](CC[C@]3(C)[C@@H]([C@H](C)CCNS(=O)(=O)C4CC4)CC[C@@H]23)[C@@]2(C)CCCC[C@@H]12 [6-5]", "MRGPRX4 (Homo sapiens)", 0.018),
    ("CC[C@H]1[C@@H](O)[C@@H]2[C@H](CC[C@]3(C)[C@@H]([C@H](C)CCNC(=S)NS(=O)(=O)c4ccc(C(C)(C)CF)cc4)CC[C@@H]23)[C@@]2(C)CCC(F)(F)C[C@@H]12 [11-4]", "MRGPRX4 (Homo sapiens)", 0.020),
    ("CC[C@H]1[C@@H](O)[C@@H]2[C@H](CC[C@]3(C)[C@@H]([C@H](C)CCNC(=O)NS(=O)(=O)c4ccc5c(c4)CCC(C)(C)O5)CC[C@@H]23)[C@@]2(C)CCCC[C@@H]12 [5-29]", "MRGPRX4 (Homo sapiens)", 0.010),
    ("CC[C@H]1[C@@H](O)[C@@H]2[C@H](CC[C@]3(C)[C@@H]([C@H](C)CNC(=O)NS(=O)(=O)c4ccc(C(C)(C)CF)cc4)CC[C@@H]23)[C@@]2(C)CCCC[C@@H]12 [20-1]", "MRGPRX4 (Homo sapiens)", 0.019),
    ("CC[C@H]1[C@@H](O)[C@@H]2[C@H](CC[C@]3(C)[C@@H]([C@H](C)CCN=C=S)CC[C@@H]23)[C@@]2(C)CCCC[C@@H]12 [7-1]", "MRGPRX4 (Homo sapiens)", 0.013),
    ("CC[C@H]1[C@@H](O)[C@@H]2[C@H](CC[C@]3(C)[C@@H]([C@H](C)CCNC(=O)NS(=O)(=O)c4ccc(N5CCCCC5)nc4)CC[C@@H]23)[C@@]2(C)CCCC[C@@H]12 [5-30]", "MRGPRX4 (Homo sapiens)", 0.014),
    ("CC[C@H]1[C@@H](O)[C@@H]2[C@H](CC[C@]3(C)[C@@H]([C@H](C)CCNC(=O)NS(=O)(=O)c4cc(F)cc(F)c4)CC[C@@H]23)[C@@]2(C)CC[C@H](F)C[C@@H]12 [9-3]", "MRGPRX4 (Homo sapiens)", 0.018),
    ("CC[C@H]1[C@@H](O)[C@@H]2[C@H](CC[C@]3(C)[C@@H]([C@H](C)COC(=O)NS(=O)(=O)c4ccc(C(C)(C)CF)cc4)CC[C@@H]23)[C@@]2(C)CCCC[C@@H]12 [18-1]", "MRGPRX4 (Homo sapiens)", 0.008),
]
